# Assay procedure: Metabolic stability in mouse liver microsome assessed as half life at 4.6 uM incubated upto 60 mins by LC/MS-MS analysis
# Assay type: ADME
# Condition set: liver microsomes
Consider the following compounds and their measured half-life at 4.6 µM readings.
Quantity kind: half-life at 4.6 µM

{"Smiles string": "O=c1cc(-c2ccc(O)cc2)oc2cc(O)cc(O)c12", "Quantity kind": "half-life at 4.6 µM", "Test value": "0.133 h"}
{"Smiles string": "O=c1cc(-c2ccc(O)c(O)c2)oc2cccc(O)c12", "Quantity kind": "half-life at 4.6 µM", "Test value": "> 1 h"}
{"Smiles string": "O=c1c(OCCCO)c(-c2ccc(O)c(O)c2)oc2cc(O)cc(O)c12", "Quantity kind": "half-life at 4.6 µM", "Test value": "> 1 h"}
{"Smiles string": "O=c1cc(-c2ccc(O)c(O)c2)oc2cc(O)cc(O)c12", "Quantity kind": "half-life at 4.6 µM", "Test value": "> 1 h"}
{"Smiles string": "COc1c(-c2ccc(O)c(O)c2)oc2cc(O)cc(O)c2c1=O", "Quantity kind": "half-life at 4.6 µM", "Test value": "> 1 h"}
{"Smiles string": "O=c1c(O)c(-c2ccc(O)c(O)c2)oc2cc(O)cc(O)c12", "Quantity kind": "half-life at 4.6 µM", "Test value": "> 1 h"}
{"Smiles string": "O=c1cc(-c2ccc(O)c(O)c2)oc2cc(F)cc(O)c12", "Quantity kind": "half-life at 4.6 µM", "Test value": "> 1 h"}
{"Smiles string": "O=c1cc(-c2cccc(O)c2)oc2cc(O)cc(O)c12", "Quantity kind": "half-life at 4.6 µM", "Test value": "0.183 h"}
{"Smiles string": "COc1cc(O)cc2oc(-c3ccc(O)c(O)c3)cc(=O)c12", "Quantity kind": "half-life at 4.6 µM", "Test value": "> 1 h"}
{"Smiles string": "O=c1cc(-c2ccccc2)oc2cc(O)c(O)c(O)c12", "Quantity kind": "half-life at 4.6 µM", "Test value": "0.683 h"}

###

# Assay procedure: Metabolic stability in mouse plasma assessed as half life at 2 uM incubated upto 120 mins by UPLC/MS analysis
# Assay type: ADME, cell-free
Listed here are compounds together with their documented half-life at 2 µM.
Quantity kind: half-life at 2 µM

{"Smiles string": "O=c1cc(-c2cccc(O)c2)oc2cc(O)cc(O)c12", "Test value": "> 2 h"}
{"Smiles string": "O=c1cc(-c2ccc(O)c(O)c2)oc2cc(O)cc(O)c12", "Test value": "> 2 h"}
{"Smiles string": "O=c1cc(-c2ccc(O)c(O)c2)oc2cc(F)cc(O)c12", "Test value": "> 2 h"}
{"Smiles string": "COc1c(-c2ccc(O)c(O)c2)oc2cc(O)cc(O)c2c1=O", "Test value": "> 2 h"}
{"Smiles string": "O=c1c(OCCCO)c(-c2ccc(O)c(O)c2)oc2cc(O)cc(O)c12", "Test value": "1.5 h"}
{"Smiles string": "O=c1cc(-c2ccc(O)cc2)oc2cc(O)cc(O)c12", "Test value": "> 2 h"}
{"Smiles string": "O=c1cc(-c2ccccc2)oc2cc(O)c(O)c(O)c12", "Test value": "> 2 h"}
{"Smiles string": "O=c1cc(-c2ccc(O)c(O)c2)oc2cccc(O)c12", "Test value": "> 2 h"}
{"Smiles string": "COc1cc(O)cc2oc(-c3ccc(O)c(O)c3)cc(=O)c12", "Test value": "> 2 h"}
{"Smiles string": "O=c1c(O)c(-c2ccc(O)c(O)c2)oc2cc(O)cc(O)c12", "Test value": "0.117 h"}

###

# Tested on: DNA polymerase eta (Homo sapiens)
# Sequence (Q9Y253 whole entry): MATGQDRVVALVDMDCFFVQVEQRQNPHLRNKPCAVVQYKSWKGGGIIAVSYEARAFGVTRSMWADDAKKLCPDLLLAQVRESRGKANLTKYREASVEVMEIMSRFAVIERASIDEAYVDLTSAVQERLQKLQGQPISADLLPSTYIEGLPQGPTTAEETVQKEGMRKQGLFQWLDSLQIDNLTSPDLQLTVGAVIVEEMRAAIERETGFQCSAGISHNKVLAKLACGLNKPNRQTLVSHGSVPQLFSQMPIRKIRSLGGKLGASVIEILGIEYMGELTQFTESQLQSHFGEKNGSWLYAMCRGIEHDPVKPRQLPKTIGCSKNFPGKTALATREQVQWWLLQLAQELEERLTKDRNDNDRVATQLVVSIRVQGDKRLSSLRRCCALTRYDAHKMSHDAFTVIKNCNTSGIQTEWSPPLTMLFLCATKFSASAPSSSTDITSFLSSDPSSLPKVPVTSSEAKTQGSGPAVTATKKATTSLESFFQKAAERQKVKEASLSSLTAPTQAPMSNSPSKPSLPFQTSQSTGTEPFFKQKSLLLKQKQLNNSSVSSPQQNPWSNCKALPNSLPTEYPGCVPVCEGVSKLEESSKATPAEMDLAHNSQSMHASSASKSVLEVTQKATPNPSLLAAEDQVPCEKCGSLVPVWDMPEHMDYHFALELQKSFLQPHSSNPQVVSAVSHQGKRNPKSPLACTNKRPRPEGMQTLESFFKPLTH
# Assay procedure: Inhibition of 6xHis-tagged human DNA polymerase eta (1 to 437 residues) expressed in Escherichia coli BL21 DE3 assessed as displacement of reporter strand using 5'-TTT TTT TTG C-TAMRA-3' reporter/5'-TCA CCC TCG TAC GAC TCT T-3' primer/5'-BHQ2-GCAAAAAAAAAAGAGTCGTACGAGGGTGA-3' template of 1:1.5:1.5 as DNA substrate preincubated for 5 to 10 mins followed by substrate addition measured immediately in presence of dTTP/MgCl2 by fluorescence based assay
pIC50: −log10 of the molar value.

{"Smiles string": "O=C1NC(=S)NC(=O)C1=Cc1cn(C(=O)c2ccc3ccccc3c2)c2ccc(Cl)cc12", "pIC50": 4.80}
